target-of-assay: MT-3 receptor (Mesocricetus auratus, UniProt A0ABM2YAB8)
Construct: from tissue; host or cells: hamster brain membranes
Sequence (A0ABM2YAB8 1-231): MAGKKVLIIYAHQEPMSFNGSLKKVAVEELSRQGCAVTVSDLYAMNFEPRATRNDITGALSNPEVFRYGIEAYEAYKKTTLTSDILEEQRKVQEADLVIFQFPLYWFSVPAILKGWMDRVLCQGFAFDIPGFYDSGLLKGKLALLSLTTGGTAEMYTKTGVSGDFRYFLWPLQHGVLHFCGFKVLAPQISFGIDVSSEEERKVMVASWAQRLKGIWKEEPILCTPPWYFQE
protocol-details: 125I-melatonin binding in hamster brain membranes, MT-3
reported-metric: IC50 (µM)
Give bare numbers, in µM.

Query :: If you can, please state the reported IC50 value of COc1ccc2[nH]cc(CCNC(=O)c3cc(=O)c(O)co3)c2c1 .
Result :: 0.8

====

target-of-assay: MT-1 receptor (Homo sapiens, UniProt P48039)
Construct: expressed in transfected cells; host or cells: CHP-K1 (Chinese hamster ovary) cells (so in the source)
Sequence (P48039 whole entry): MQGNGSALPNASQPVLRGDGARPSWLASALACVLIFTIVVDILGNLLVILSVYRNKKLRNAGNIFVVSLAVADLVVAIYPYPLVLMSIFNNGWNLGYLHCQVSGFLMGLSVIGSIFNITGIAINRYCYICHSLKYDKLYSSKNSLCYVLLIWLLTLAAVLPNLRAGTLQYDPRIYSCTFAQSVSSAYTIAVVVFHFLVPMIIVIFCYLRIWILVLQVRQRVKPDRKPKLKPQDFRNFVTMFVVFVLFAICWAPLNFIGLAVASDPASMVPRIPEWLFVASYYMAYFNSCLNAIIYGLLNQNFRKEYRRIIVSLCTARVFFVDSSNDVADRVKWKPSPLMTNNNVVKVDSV
protocol-details: 125I-melatonin binding in membranes of CHP-K1 cells, MT-1
reported-metric: pIC50
Answers are plain numbers, as −log10 of the molar value.

Query :: If you can, please state the reported pIC50 value of COc1ccc2[nH]cc(CCNC(=O)c3cc(=O)c(O)co3)c2c1 .
Result :: 7.62
